Target: Aβ42 (Homo sapiens, UniProt P05067)
Sequence (P05067 672-713): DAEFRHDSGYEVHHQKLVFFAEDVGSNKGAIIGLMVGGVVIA
Assay: Th-T (thioflavin-T) assay of Aβ42 aggregation
Assay type: biochemical
Settings: concentration 50, unit not given; time-course reading M143
Measured Th-T fluorescence of Aβ42 with compound, mean of three wells (Fig. 7a source data), listed per entry.

Below, 4 compounds whose answers are already recorded.
C=C1CC[C@@H]2[C@](C)(CC[C@H]3O[C@H](C=C(C)C)C[C@@]23C)[C@@H]1Cc1c(OC)oc(CO)c(C(=O)OC)c1=O [Compound 21] : 0.5052
C=C1CCC2C(C)(CCC=C(C)C)C(O)CCC2(C)C1Cc1c(OC)oc(CO)c(C(=O)OC)c1=O (centres unmarked) [Compound 13] : 0.478
C=C1CCC2C(C)(CCC=C(C)C)C(O)CCC2(C)C1Cc1c(OC)oc(C)c(C(=O)OC)c1=O (centres unmarked) [Compound 14] : 0.7264
C=C1CC[C@@H]2[C@](C)(CC[C@H]3O[C@H](C=C(C)C)C[C@@]23C)[C@@H]1Cc1c(OC)oc(CO)c(C)c1=O [Compound 20] : 2.125

Then this compound:
Th-T fluorescence of Aβ42 with compound, mean of three wells (Fig. 7a source data) reported for this compound C=C1CCC2C(C)(CCC=C(C)C)C(O)CCC2(C)C1Cc1c(OC)oc(CO)c(C)c1=O (centres unmarked) [Compound 12] : 1.6964
